Molecular target: T1, rat α-CGRP (1-37) (rat, C-terminal amide; N-terminal biotin when captured on the SA chip)
T1 construct: also called rat α (1-37); α-rat
T1 peptide: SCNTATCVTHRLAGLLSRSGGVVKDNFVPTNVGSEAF
Test: Biacore, 37°C, Fab over CGRP on SA chip
Entries whose koff is below 0.01 s⁻¹ take True; entries at or above 0.01 s⁻¹ take False.

Answered cases to consult:
Quick check: does G1 variant M43 Fab (Fab, V domains shown, Fab; constant domains as m1) VH: EVQLVESGGGLVQPGGSLRLSCAASGFTFSNYWISWVRQAPGKGLEWVAEIRSKSDNCATHYAEAVKGRFTISRDNAKNSLYLQMNSLRAEDTAVYYCTVYFDYGLAIQNYWGQGTLVTVSS VL: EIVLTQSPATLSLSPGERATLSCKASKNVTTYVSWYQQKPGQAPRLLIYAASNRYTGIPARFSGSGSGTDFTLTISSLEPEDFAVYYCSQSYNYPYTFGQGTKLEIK have koff under 0.01 s⁻¹?
True

Subsequent entry: G1 variant M76 Fab (Fab, V domains shown, Fab; constant domains as m1) VH: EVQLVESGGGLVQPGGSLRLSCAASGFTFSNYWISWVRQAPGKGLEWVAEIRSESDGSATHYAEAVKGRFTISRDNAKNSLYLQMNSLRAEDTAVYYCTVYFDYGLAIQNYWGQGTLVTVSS VL: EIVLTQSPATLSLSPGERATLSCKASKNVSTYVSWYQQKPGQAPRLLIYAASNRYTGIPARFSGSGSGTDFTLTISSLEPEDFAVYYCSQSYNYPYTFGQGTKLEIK
True

Same question, G1 variant M59 Fab (Fab, V domains shown, Fab; constant domains as m1) VH: EVQLVESGGGLVQPGGSLRLSCAASGFTFSNYWISWVRQAPGKGLEWVAEIRSKSDNNATFYAEAVKGRFTISRDNAKNSLYLQMNSLRAEDTAVYYCTVYFDYGLAIQNYWGQGTLVTVSS VL: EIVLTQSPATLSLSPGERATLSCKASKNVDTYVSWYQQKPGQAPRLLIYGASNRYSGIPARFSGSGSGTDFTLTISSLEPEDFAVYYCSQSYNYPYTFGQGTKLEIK this time
False

G1 variant M32 Fab (Fab, V domains shown, Fab; constant domains as m1) VH: EVQLVESGGGLVQPGGSLRLSCAASGFTFSNYWISWVRQAPGKGLEWVAEIRSKSDHSATHYAEAVKGRFTISRDNAKNSLYLQMNSLRAEDTAVYYCTVYFDYGLAIQNYWGQGTLVTVSS VL: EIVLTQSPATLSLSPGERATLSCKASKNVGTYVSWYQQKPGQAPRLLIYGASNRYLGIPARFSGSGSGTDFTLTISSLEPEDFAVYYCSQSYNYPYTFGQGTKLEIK , same question.
True

New cases:
Regarding G1 variant M49 Fab (Fab, V domains shown, Fab; constant domains as m1) VH: EVQLVESGGGLVQPGGSLRLSCAASGFTFSNYWISWVRQAPGKGLEWVAEIRSKSDNYATFYAEAVKGRFTISRDNAKNSLYLQMNSLRAEDTAVYYCTVYFDYGLAIQNYWGQGTLVTVSS VL: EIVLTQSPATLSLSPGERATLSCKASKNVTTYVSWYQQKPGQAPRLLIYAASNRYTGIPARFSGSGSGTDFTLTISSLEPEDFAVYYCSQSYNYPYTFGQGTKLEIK , kindly confirm whether its koff is beneath 0.01 s⁻¹.
False
